Recorded growth by entry
System: HS 578T breast
Measurement Protocol: NCI-60 one-dose screen, 48 h (100 = growth as untreated, 0 = no growth, -100 = all killed)
Assay Setup: 10 µM
About 83,000 compounds went through this panel and 20% of them were active in at least one assay; those are over-represented in the sample as a whole.
Unit % implied. Number only.

- Molecule: "CCOC(=O)C1=C(Nc2ccc(OC)cc2)C(N)=NC1=N"
  System: "HS 578T breast"
  Value Kind: "growth"
  Unit Tag: "%"
  Reported: 48.5

Using the record for CCCCCN(CCCCC)C(C)C(O)c1ccc2cc(Cl)c3ccccc3c2c1 (stereo unspecified) , report its growth.
89.4

Try this molecule too: `C#Cc1ccc(-n2c(/C=C/c3cc(OC)c(OC)c(OC)c3)nc3ncccc3c2=O)cc1`
75.4

And `CCN(CC)CCCOC(=O)Nc1ccccc1Cl` ?
121

Would you kindly repeat that for `CCCCCCCOc1cccc(/C=C2/C(=O)N=C3SCCCN32)c1` ?
91.4

Then what about the molecule `CN(C)CCCN(Cc1ccccc1O)C(=S)Nc1ccc(Cl)cc1` ?
89

src = PubChem BioAssay (NCI)
